The values you see were collected from the supplement of paper PMC9170038.

System: MS2 coat protein
Assay: apparent KD of MS2 coat protein; designed switch direction (-1 OFF switch, 1 ON switch): -1; higher = weaker reporter binding
Settings: Eterna round: R95; input ligand: microRNA oligo, concentration not stated
endpoint: apparent KD of MS2 coat protein (nM)
Numeric answer only, unit nM assumed.

Prompt line: Consider the sequence shown here: UGUACUAUGCGAGCUGACUUGCGUAGUGCAGCAGGUGUAACAUGAGGAUCACCCAUGUCCUCAUUUGCUCGUCUUAA [Mat - Sensor v3 - Turn-off var 2 - D10] (puzzle: Sensor v3, turn-off variant 2) What is its recorded apparent KD of MS2 coat protein?
Response line: 196

Prompt line: Reported apparent KD of MS2 coat protein for UACGGGUCAGGAUAUGCGAGAGAGUGGGAAAUAGGAAGGUAGCAGAAGGGACAUGAGGAUCACCCAUGUGAGGC [JR_Exclu4_Sub099] (puzzle: Exclusion 4) : what is it?
Response line: 23.8

Prompt line: Fill blank: measured apparent KD of MS2 coat protein of the sequence GAGGAGCAAGGAUAUACGAGGAUAGGGAAGGUUGGAGAGUGACAUGAGGAUCACCCAUGUAGAAGGUGCAAGGG [JR_Exclu2_Sub095] (puzzle: Exclusion 2) is ____.
Response line: 108

Prompt line: apparent KD of MS2 coat protein lookup needed for GGUUGACAUGAGGAUCACCCAUGUGAGGAUAUGCGAGAGAAAAAAGUGAGGAAGUAAAGCAGAAGGCGCUGUCG [salish99-ex1_r3_004] (puzzle: Exclusion 1) , thanks.
Response line: 200

Prompt line: Param item = AAUUCACAUGAGGAUCACCCAUGUCAGGAUAUGGUUUUAUUUUUUUCUUUUCUUGAUUCCAGAAGGGACAGCUA (puzzle: Exclusion 1) ; retrieve measured apparent KD of MS2 coat protein.
Response line: 70.8

* * *

System: MS2 coat protein
Experiment: apparent KD of MS2 coat protein; designed switch direction (-1 OFF switch, 1 ON switch): -1; higher = weaker reporter binding
Settings: input ligand: none
endpoint: apparent KD of MS2 coat protein (nM)
Value expressed in nM; do not type the unit.

Prompt line: Which value of apparent KD of MS2 coat protein has been reported for AGGAUGCUAGGAUAUACAGGUUGAAAACUGAUCGGCGCCAGACAUGAGGAUCACCCAUGUAGAAGGAGCGAGGC [EX2 B.26] (Eterna round: R97, puzzle: Exclusion 2) in the records?
Response line: 38.7

Prompt line: Which measured apparent KD of MS2 coat protein value corresponds to AUCCAACAUGAGGAUCACCCAUGUCAGGAUAUCUAGCGGUGCGGCAACCCGGGCGCGCGGAGAAGGGACAACGG [EX1 B.23] (Eterna round: R97, puzzle: Exclusion 1) ?
Response line: 27.2

Prompt line: What does the data say about its apparent KD of MS2 coat protein? Entry: CGCUGGACAGGAUAUGUUCUUGGGCACUUGAGGAUCACCCAAGUCAUCAAGACAACAGGCACAGAAGGGUUUAUGG [salish99_ex5_r4_023] (Eterna round: R97, puzzle: Exclusion 5)
Response line: 18.4

Prompt line: Consider the sequence GUAAUUAAUGUAGGAUAUGCAAGGCGAACCUAAGCAGAAGGACAUGUGGAUCACCCAUGUAAUGCGGUCUGCGUACAGAUCGCU [salish99_ex1_NG1_002] (Eterna round: R96, puzzle: Exclusion NG 1) and give its measured apparent KD of MS2 coat protein.
Response line: 60.2

Prompt line: Requested field: apparent KD of MS2 coat protein. Item: GCAGCAUAGUAUACUUACUGUUACAUGAGGAUCACCCAUGUACAGGAUAUGGUCUGGAUUACAGGCCAGAAGGGUACAAGCUGC [Eli exng3 - 024] (Eterna round: R96, puzzle: Exclusion NG 3)
Response line: 11.7

Prompt line: // returns reported apparent KD of MS2 coat protein for input AACCUGAGGCAAAGCUUUAGGUGUACAUGAGGAUCACCCAUGUAGGAUAUGGUAAGCAAAGCUUACCAGAAGGACAUAAUGAUA [Mat - Exclusion NG 3 - Mod of JL - D49] (Eterna round: R96, puzzle: Exclusion NG 3)
Response line: 59.4

Prompt line: What does the record list as apparent KD of MS2 coat protein for AUAAUACAUGUAGGAUAUGCGUGGCGAAGCUAUGCAGAAGGACAUGAGGAUCACCCAUGUGCUAGCGUCUGCGUACAGAUGCUA [JL eng1 1.35 mod 3] (Eterna round: R96, puzzle: Exclusion NG 1) ?
Response line: 44.1

Prompt line: So what does the record say about apparent KD of MS2 coat protein for UAGAAACAUGAGGAUCACCCAUGUGAGGAUAUGGCCCGCCCGGCGUGAGCUGGUUUUGUCAGAAGGCGCAUAGG [salish99_ex1_r4_020] (Eterna round: R97, puzzle: Exclusion 1) ?
Response line: 71.1

Prompt line: Quick one: apparent KD of MS2 coat protein of ACUGGUCGAGGAUAUACAUGAGGAUCACCCAUGUGAUCAGCAGUCCUCGGACUGCAAUGUAGAAGGCGACCAGU [E3/1-A2] (Eterna round: R97, puzzle: Exclusion 3) ?
Response line: 356

Prompt line: Query: apparent KD of MS2 coat protein; subject: UAAACAUGGAUAUAACAGUACAUGAGGAUCACCCAUGUUAAUAUGAUAAAUUAUAACAAGUUUUUUUGUCGUCUUAA [Feeding at the Trough] (Eterna round: R97, puzzle: Sensor, turn-off variant 1)
Response line: 190

Prompt line: Given GCUUGCUUUUUGGUUUUCAACAUGAGGAUCACCCAUGUUCGUCUUGUGCUCGGGCUUGGGCGGUGUCCGGGUUUGGG [A 9%, less GC] (Eterna round: R97, puzzle: Sensor, turn-off variant 1) , state its recorded apparent KD of MS2 coat protein.
Response line: 60.6

Prompt line: For the sequence shown here, AAUAACAAGUUGAUCCUACACAUGAGGAUCACCCAUGUGCUCGUCUUGUCAAGUACUAUCACGAAAGUGUUAGUUCA [Mod-Hyphema] (Eterna round: R97, puzzle: Sensor, turn-off variant 1) , give the reported apparent KD of MS2 coat protein.
Response line: 263

Prompt line: Param item = AUAAUAAAACAUGAGGAUCACCCAUGUGGGUCGUUCUACUGGCAGGAUAUCGCCAGACAAUAAAACGAGAAGGGCCAGUUAAUA [Leanerrean] (Eterna round: R96, puzzle: Exclusion NG 3) ; retrieve measured apparent KD of MS2 coat protein.
Response line: 86

Prompt line: // query apparent KD of MS2 coat protein value for entry UUAUUGUGUGUAGGAUAUGCGUGUUAUUAUUAUGCAGAAGGACAUGAGGAUCACCCAUGUGUAUUGUUAUUAUAUAUUAUAUAU [Title] (Eterna round: R96, puzzle: Exclusion NG 1)
Response line: 27

Prompt line: Returns the measured apparent KD of MS2 coat protein for the input sequence. Input: CCAAGAAUAGGAUAUACACCAUGUCAGCUUAUAUACAACGAACAUGAGGAUCACCCAUGUAGAAGGGUUCUCUC [Exclusion-2-#1] (Eterna round: R97, puzzle: Exclusion 2)
Response line: 479

Prompt line: Item CGGGUCUGAGGAUAUCCACCCUCAUACAUGAGGAUCACCCAUGUUCACCCUUGGGUUCCCGGAGAAGGCAGUUUUC [Megrez-3.6] (Eterna round: R97, puzzle: Exclusion 5) has what recorded apparent KD of MS2 coat protein?
Response line: 208

Prompt line: Endpoint output: apparent KD of MS2 coat protein of UAUUAGUAAGGAUAUGAGCCGUAGGACGAAAGUCCUACGGCUCAGAAGGUACAUGAGGAUCACCCAUGUUUAUU [Mod of Fisker 6 - Jieux - Exclusion 4] (Eterna round: R97, puzzle: Exclusion 4) . Value?
Response line: 15.9

Prompt line: May I ask what apparent KD of MS2 coat protein has been recorded for CCGAACAUAGGAUAUACAUGAGGAUCACCCAUGUAUAUAAAAGGGUGUUCCAACUAAAGUAGAAGGAUGUAAGG [ExFusion 1 - Jieux - Exclusion 3] (Eterna round: R97, puzzle: Exclusion 3) ?
Response line: 40.6
